Assay: Fold resistance, ratio of EC50 for antiviral activity against NNRTI-resistant HIV-1 harboring K103N mutant infected in human MT4 cells assessed as virus-induced cytopathicity to EC50 for antiviral activity against HIV-1 IIIB infected in human MT4 cells assessed as reduction in virus induced cytopathic effect
Assay type: functional
REPORTED_METRIC: Ratio EC50
API note: the answer field is a bare number with no unit suffix.

Completed entries (count: 10):
SMILES_TEXT	READOUT_VALUE
Cc1cc(C#N)cc(C)c1Oc1nc(NC2CCN(c3ccc(NS(N)(=O)=O)cc3)CC2)ncc1C(N)=O	1.1
Cc1cc(C#N)cc(C)c1Oc1nc(NC2CCN(Cc3ccc(C(N)=O)cc3)CC2)ncc1C(N)=O	1
Cc1cc(C#N)cc(C)c1Oc1nc(NC2CCN(c3ccc(N)cc3)CC2)ncc1C(N)=O	1.1
Cc1cc(C#N)cc(C)c1Oc1nc(NC2CCN(c3ccc(NS(=O)(=O)N(C)C)cc3)CC2)ncc1C(N)=O	1.7
Cc1cc(C#N)cc(C)c1Oc1nc(Nc2ccc(C#N)c(F)c2)ncc1C(N)=O	1.8
Cc1cc(C#N)cc(C)c1Oc1nc(NC2CCN(Cc3ccc(S(C)(=O)=O)cc3)CC2)ncc1C(N)=O	0.9
Cc1cc(C#N)cc(C)c1Oc1nc(NC2CCN(c3ccc(NS(=O)(=O)C4CC4)cc3)CC2)ncc1C(N)=O	1.2
Cc1cc(C#N)cc(C)c1Oc1nc(Nc2ccc(C#N)cc2)ncc1C(N)=O	4.3
Cc1cc(C#N)cc(C)c1Oc1nc(NC2CCN(c3ccc(NS(C)(=O)=O)cc3)CC2)ncc1C(N)=O	8
Cc1cc(C#N)cc(C)c1Oc1nc(NC2CCN(Cc3ccc(S(N)(=O)=O)cc3)CC2)ncc1C(N)=O	1.3

Next compound, please.
// Input: "Cc1cc(C#N)cc(C)c1Oc1nc(NC2CCN(Cc3ccc(B(O)O)cc3)CC2)ncc1C(N)=O" . Output its Ratio EC50 only.
1.1

----------
Assay: Selectivity index, ratio of CC50 for cytotoxicity against human MT4 cells assessed as reduction in cell viability to EC50 for antiviral activity against NNRTI-resistant HIV-1 harboring K103N mutant infected in human MT4 cells
Format: toxicity, cell-based
Conditions: read-out: Ratio CC50/EC50
REPORTED_METRIC: selectivity ratio
Answer with a bare number; do not write a unit.

// known answers, use as guide
SMILES_TEXT	READOUT_VALUE
Cc1cc(C#N)cc(C)c1Oc1nc(NC2CCN(c3ccc(NS(N)(=O)=O)cc3)CC2)ncc1C(N)=O	4730
Cc1cc(C#N)cc(C)c1Oc1nc(NC2CCN(c3ccc(NS(=O)(=O)N(C)C)cc3)CC2)ncc1C(N)=O	18700
Cc1cc(C#N)cc(C)c1Oc1nc(NC2CCN(c3ccc(N)cc3)CC2)ncc1C(N)=O	4120

Pending compound:
Please indicate selectivity ratio recorded for "Cc1cc(C#N)cc(C)c1Oc1nc(Nc2ccc(C#N)cc2)ncc1C(N)=O"
650

----------
System: Human immunodeficiency virus 1
Assay: Antiviral activity against NNRTI-resistant HIV-1 harboring Y181C mutant infected in human MT4 cells assessed as virus-induced cytopathicity incubated for 5 days by MTT assay
Type: functional, organism-based
Conditions: Human immunodeficiency virus 1, MT4, 120 h
Response field label takes true (1) when EC50 is strictly below 200 nM and false (0) in all other cases.

SMILES_TEXT	ASSIGNED_CATEGORY
Cc1cc(C#N)cc(C)c1Oc1nc(NC2CCN(Cc3ccc(S(N)(=O)=O)cc3)CC2)ncc1C(N)=O	false (0)
Cc1cc(C#N)cc(C)c1Oc1nc(NC2CCN(Cc3ccc(S(C)(=O)=O)cc3)CC2)ncc1C(N)=O	true (1)
Cc1cc(C#N)cc(C)c1Oc1nc(NC2CCN(c3ccc(NS(N)(=O)=O)cc3)CC2)ncc1C(N)=O	true (1)
Cc1cc(C#N)cc(C)c1Oc1nc(NC2CCN(c3ccc(NS(=O)(=O)N(C)C)cc3)CC2)ncc1C(N)=O	true (1)
Cc1cc(C#N)cc(C)c1Oc1nc(NC2CCN(c3ccc(NS(C)(=O)=O)cc3)CC2)ncc1C(N)=O	false (0)

Field: next compound
Problem: For the compound "Cc1cc(C#N)cc(C)c1Oc1nc(NC2CCN(Cc3ccc(C(N)=O)cc3)CC2)ncc1C(N)=O" , is EC50 under 200 nM?
false (0)
